Reference source: patent US20230203058A1

# System: stimulated primary human T cells
# Protocol description: T cell proliferation assay (rescue of proliferation in presence of ATP, CFSE dilution)
# Type: cell-based
# Test context: 100 uM ATP, Condition B: X-VIVO15, 2% HSA and 0,1% AAG, read-out: (2) T Cell proliferation (Condition B) IC50
pIC50: −log10 of the molar value.
Listing of recorded pIC50 by entry.

Answered cases to consult:
# Compound, pIC50
data = [
    ("COc1cc2cc(c1OC)OCCCC(OC(=O)CCNC(C)=O)CCN1CCCN(CCCOC2=O)CC1 (stereo not drawn)", "< 6.30"),
    ("COc1cc2cc(c1OC)OCCCC(O/N=C\\c1ccccc1)CCN1CCCN(CCCOC2=O)CC1 (stereo not drawn)", "< 6.30"),
    ("COc1cc(C(=O)O[C@@H]2CCCOc3cc(cc(OC)c3OC)C(=O)NCCCN3CCCN(CC2)CC3)cc(OC)c1OC", "6.30 to 7.70"),
    ("COc1cc(C(=O)O[C@@H]2CCCOc3cc(cc(OC)c3OC)C(=O)OCCCN3CCN(CC2)CC(F)(F)C3)cc(OC)c1OC", "6.30 to 7.70"),
    ("COc1cc(C(=O)OCCCN2CCCN(CCCOC(=O)c3cc(OC)c(OC)c(OC)c3)CC2)cc(OC)c1OC [Dilazep, dilazep, reference compound]", "6.30 to 7.70"),
    ("COc1cc2cc(c1OC)OCCCC(OC(=O)CCCC#N)CCN1CCCN(CCCOC2=O)CC1 (stereo not drawn)", "< 6.30"),
    ("COc1cc2cc(c1OC)OCCC[C@@H](O)CCN1CCCN(CCCOC2=O)CC1", "< 6.30"),
    ("COc1cc(C(=O)O[C@@H]2CCCOc3cc(cc(OC)c3OC)C(=O)N(C)CCCN3CCCN(CC2)CC3)cc(OC)c1OC", "< 6.30"),
    ("COCCC(=O)OC1CCCOc2cc(cc(OC)c2OC)C(=O)OCCCN2CCCN(CC1)CC2 (stereo not drawn)", "< 6.30"),
    ("COc1cc(C(=O)O[C@H]2CCCOc3cc(cc(OC)c3OC)C(=O)OCCCN3CCCN(CC2)CC3)cc(OC)c1OC", "6.30 to 7.70"),
]

In: If you can, please state the reported pIC50 value of COc1cc2cc(c1OC)OCCCC(OC(=O)C1CC1)CCN1CCCN(CCCOC2=O)CC1 (stereo not drawn) .
Out: < 6.30

In: Item under review: COc1cc2cc(c1OC)OCCCC(OC(=O)CCCNC(C)=O)CCN1CCCN(CCCOC2=O)CC1 (stereo not drawn) . Reported pIC50?
Out: < 6.30

In: Could you share which pIC50 value was measured for COc1cc2cc(c1OC)OCCCC(OC(=O)CCn1cccn1)CCN1CCCN(CCCOC2=O)CC1 (stereo not drawn) ?
Out: < 6.30

In: I am curious: what pIC50 value has been reported for COc1cc2cc(c1OC)OCCC[C@H](OC(=O)c1ccccc1)CCN1CCCN(CCCOC2=O)CC1 ?
Out: < 6.30

In: Quick check: pIC50 of COc1cc2cc(c1OC)OCCC[C@@H](OC(=O)c1ccccc1)CCN1CCCN(CCCOC2=O)CC1 ?
Out: 6.30 to 7.70
